Hello, the source for this data is patent US20240425479A1, in case you need it.

# assayedTarget: Recombinant (1-346) HPK1 (h) (Homo sapiens)
# Construct: Recombinant (1-346) HPK1 (h) is incubated with 8 mM MOPS pH 7.0
# Sequence (Q92918 1-346): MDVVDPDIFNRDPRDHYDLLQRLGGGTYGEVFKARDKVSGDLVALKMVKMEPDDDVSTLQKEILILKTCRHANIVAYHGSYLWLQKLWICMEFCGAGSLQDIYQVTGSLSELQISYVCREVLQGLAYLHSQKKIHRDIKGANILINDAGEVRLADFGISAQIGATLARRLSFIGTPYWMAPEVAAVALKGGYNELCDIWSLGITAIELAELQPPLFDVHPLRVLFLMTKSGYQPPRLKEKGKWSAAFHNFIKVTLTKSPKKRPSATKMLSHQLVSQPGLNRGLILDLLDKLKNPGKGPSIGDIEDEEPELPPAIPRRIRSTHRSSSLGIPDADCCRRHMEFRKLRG
# assay: HPK1 human STE kinase enzymatic radiometric assay
# Format: biochemical
# reportedConditions: read-out: HPK1 IC50 nM Range
# Method: (a) HPK1 Human STE Kinase Enzymatic Radiometric Assay A stock solution of 10 mM of test compound is prepared in DMSO. The compound plate was prepared by 3-fold and 9-point serial dilutions. Recombinant (1-346) HPK1 (h) is incubated with 8 mM MOPS pH 7.0, 0.2 mM EDTA, 0.33 mg/mL myelin basic protein, 10 mM MgAcetate and [gamma-33P]-ATP (specific activity and concentration as required). The reaction is initiated by the addition of the Mg/ATP mix. […]
resultType: IC50

A selection of reference data follows.
CC(c1cc(-c2nc(-c3ccc4c(=O)[nH]cc(F)c4c3)c(N)nc2F)ccc1O)N(C)C (centres unmarked) | 0.1 to 10 nM
Cc1cc2cc(-c3nc(-c4ccc(N5CCN(C(C)C)CC5)cc4)c(F)nc3N)c(F)cc2c(=O)[nH]1 | 0.1 to 10 nM
CCN(C)Cc1cc(-c2nc(-c3ccc4c(=O)[nH]cc(F)c4c3)c(N)nc2F)ccc1C1=CCOCC1 | 11 to 100 nM
CCN(C)Cc1cc(-c2nc(-c3ccc4c(c3)C(F)(F)CNC4=O)c(N)nc2F)ccc1C1CCOCC1 | 0.1 to 10 nM
COC1CCN(Cc2cc(-c3nc(-c4cc5c(cc4F)C(=O)NCC5)c(N)nc3F)ccc2N2CCOCC2)CC1 | 11 to 100 nM

Report measured IC50; entry is CN(C)Cc1cc(-c2nc(-c3ccc4c(c3)CCNC4=O)c(N)nc2F)c(F)c(F)c1N1CCOCC1
101 to 1000 nM

For the compound Cc1cc2cc(-c3nc(-c4ccc(N5CCN(CCCC(F)F)CC5)cc4)c(F)nc3N)cc(F)c2c(=O)[nH]1 , give its reported IC50.
0.1 to 10 nM

Provide only the value of recorded IC50 for Cc1[nH]c(=O)c2cc(F)c(-c3nc(-c4ccc(N5CCN(C(C)C)CC5)cc4)c(F)nc3N)cc2c1F
0.1 to 10 nM

Tell me IC50 reported for CN(C)Cc1cc(-c2nc(-c3ccc4c(=O)[nH]cc(F)c4c3)c(N)nc2F)cc2c1OCCC2
0.1 to 10 nM

Please give measured IC50 of the following entry: Cc1cc(-c2nc(-c3ccc4c(c3)CCNC4=O)c(N)nc2F)cc2c1CCN(C)C2
0.1 to 10 nM

Quickly give me recorded IC50 for Cc1[nH]c(=O)c2c(F)cc(-c3nc(-c4ccc(N5CCOCC5)c(CN(C)C)c4)c(F)nc3N)cc2c1Cl
0.1 to 10 nM

Tell me its IC50 given Cc1nc2cc(-c3nc(-c4ccc(N5CCOCC5)c(CN(C)C)c4)c(F)nc3N)ccc2c(=O)[nH]1 as the entry.
11 to 100 nM

Return IC50 for the following compound: Nc1nc(F)c(-c2ccc(N3CCOCC3)c(CN3CCCC3)c2)nc1-c1ccc2c(c1)CCNC2=O
0.1 to 10 nM

Specify measured IC50 for Cc1nc2cc(-c3nc(-c4ccc(N5C[C@@H](C)O[C@@H](C)C5)c(CN(C)C)c4)c(F)nc3N)cc(F)c2c(=O)[nH]1 .
11 to 100 nM
